Overview of reported self-cleavage across a group of variants:
B1: HDV Ribozyme (parent)
chain: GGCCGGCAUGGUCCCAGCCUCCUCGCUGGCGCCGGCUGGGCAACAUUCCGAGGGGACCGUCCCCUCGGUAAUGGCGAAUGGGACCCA

- Variants of: B1
- experiment summary: self-cleavage, relative activity (ratio to wild type); higher = more cleavage; co-transcriptional
# print the numeric value only

Worked cases, answers included:
GGCCGGCAUGGUCCCAGCCUCCUCGCUGGCGCCGGCUGCGCAACAUUCCGAGUGGACCGUCCCCUCGGUAAUGGCGAAUGGGACCCA [G39C G53U] :: 0.133
GGCCGGCAUGGUCCCAGCCUCCUCCCCGGCGCCGGCUGGGCAACAUUCCGAGGGGACCGUCCCCUCGGUAAUGGCGAAUGGGACCCA [G25C U27C] :: 0.128
GGCCGGCAUGGUCCCAGUCUCCUCGCUGGCGCCGGCUGGGCAACAUUCCGAGGGGACCGUCCCCUCGGUAAUCGCGAAUGGGACCCA [C18U G73C] :: 0.217
GGCCGGCAUGGUCCCAGCCUCCUCGCUGGCGCCGGCUGGGCAACAUUCCGAGGGGACCGUCCCCUAGGUAAUGGCGAAUGGGACCCA [C66A] :: 0.975
GGCCGGCAUGGUCCCAGCCUCCUCGCUGGCGCCGGCUGGGCAACAUUCCGAGGGGACCGUCCCCUCCGUAAUGGCGAAUGGGACCCU [G67C A87U] :: 0.858

Item under review: GGCCGGCAUGGUCCCAGCCUCCUUGCUGGCGCCGGCUGGGCAACAUUCCGAGGGGACCGUCCCCUCGCUAAUGGCGAAUGGGACCCA [C24U G68C] . Reported self-cleavage?
0.456

Item under review: GGCCGGCAUGGACCCAGCCUCCUCGCUGGCGCCGGCUGGGCAACAUUCCGAGGGGACCGUCCCCUCGGUCAUGGCGAAUGGGACCCA [U12A A70C] . Reported self-cleavage?
0.332

Item under review: GGCCGGCAUGGUCCCAGCCUCCUCGCUGGCGACGUCUGGGCAACAUUCCGAGGGGACCGUCCCCUCGGUAAUGGCGAAUGGGACCCA [C32A G35U] . Reported self-cleavage?
0.157

Item under review: GGCCGGCAUGGUCCCAGCCUCCUCGCCGGCGCCGGCUGGGCAACAUUCCGAGGGGACCGUCCCCUCGGUAAUGGCGAAUGGUACCCA [U27C G82U] . Reported self-cleavage?
0.208

Item under review: GGCCGGCAUGGUCCCAGCCUCCUUGCUGGCGCCGGCUGGGCAACAUUCCGAGGGGACCGUCCCCUCGGUAAUGGCGAACGGGACCCA [C24U U79C] . Reported self-cleavage?
0.161

This collection of values is drawn from the RNAGym collection of RNA variant scans (doi:10.7554/elife.80360).
